System: A-375
Test: Growth inhibition of human A375 cells after 4 days by MTT assay
Assay type: functional, cell-based
Conditions: A-375, 96 h
pIC50: −log10 of the molar value.
Measured Parameter: pIC50

Use the examples below as a reference point.
Chemical Structure	Experimental Value
Fc1cc(CN2C[C@@H]3C[C@H]2CO3)ccc1-c1ccnc2c(-c3cccc4[nH]ncc34)c(-c3ccncc3)nn12	6.57
Fc1cc(CN2C3COCC2COC3)ccc1-c1ccnc2c(-c3cccc4[nH]ncc34)c(-c3ccncc3)nn12	6.52
CN1C[C@@H]2C[C@H]1CN2c1cccc(-c2ccnc3c(-c4cccc5[nH]ncc45)c(-c4ccncc4)nn23)c1	5.85
CN1C[C@@H]2C[C@H]1CN2c1cc(F)c(-c2ccnc3c(-c4ccc(F)c5[nH]ncc45)c(-c4ccncc4)nn23)c(F)c1	7.77
CN1C[C@@H]2C[C@H]1CN2c1ccc(-c2ccnc3c(-c4ccc(F)c5[nH]ncc45)c(-c4ccncc4)nn23)c(F)c1	7.48

I: CN1C[C@@H]2C[C@H]1CN2c1cc(F)c(-c2ccnc3c(-c4cccc5[nH]ncc45)c(-c4ccncc4)nn23)c(F)c1
II: CN1C[C@@H]2C[C@H]1CN2c1ccc(-c2ccnc3c(-c4cccc5[nH]ncc45)c(-c4ccncc4)nn23)cc1
Of the two listed items, which has the higher pIC50? First: I Second: II In your reply, give the label of the chosen option.
I
